Origin of values: the supplement of paper PMC3545927

# subject_of_test: furin, P09958
# Sequence (P09958 whole entry): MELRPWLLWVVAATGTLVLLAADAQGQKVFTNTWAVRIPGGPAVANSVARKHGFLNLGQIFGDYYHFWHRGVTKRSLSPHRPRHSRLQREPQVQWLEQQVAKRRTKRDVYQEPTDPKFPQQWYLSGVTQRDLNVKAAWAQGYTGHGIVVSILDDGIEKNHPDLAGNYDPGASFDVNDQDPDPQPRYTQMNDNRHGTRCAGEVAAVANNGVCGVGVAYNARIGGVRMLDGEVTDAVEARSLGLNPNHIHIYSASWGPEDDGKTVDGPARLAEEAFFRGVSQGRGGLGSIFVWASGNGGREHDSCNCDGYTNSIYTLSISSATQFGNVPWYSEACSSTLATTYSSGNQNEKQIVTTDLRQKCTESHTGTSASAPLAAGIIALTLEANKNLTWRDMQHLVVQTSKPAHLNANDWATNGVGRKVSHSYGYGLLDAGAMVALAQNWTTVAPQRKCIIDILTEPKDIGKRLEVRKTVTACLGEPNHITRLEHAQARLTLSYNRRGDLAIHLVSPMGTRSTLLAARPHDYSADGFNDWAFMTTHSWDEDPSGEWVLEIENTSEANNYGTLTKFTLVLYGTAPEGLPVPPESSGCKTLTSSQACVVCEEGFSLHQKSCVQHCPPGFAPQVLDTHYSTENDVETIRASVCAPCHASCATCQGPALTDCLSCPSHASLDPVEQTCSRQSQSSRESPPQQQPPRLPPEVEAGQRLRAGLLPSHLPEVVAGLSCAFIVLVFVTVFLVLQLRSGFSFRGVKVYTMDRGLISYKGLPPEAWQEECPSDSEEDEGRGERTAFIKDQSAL
# assay_comment: furin cleavage Z-score vs untreated control; higher = more cleavage, active = 3.5 or more, inactive = 1 or less, 8 variable residues between constant flanks;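 further: purified furin at 1:10 enzyme:substrate in 50 mM HEPES pH 7.5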
# condition_context: 30 min
The list shows a part of the results. The true hit rate is not given.
Each entry below carries its recorded furin cleavage Z-score.
I'd appreciate a reply containing only the number, no unit.

CAAWDMMMNWAGNASASA [HC320] ... -0.468
CADRMEECSQAGNASASA [HC1813] ... -0.0128
CAIHARFRRGAGNASASA [FS-250] ... 9.69

Query :: Value lookup for furin cleavage Z-score; key = CAVVCCSMTYAGNASASA [HC2078]
Result :: -0.381
